Collected kon values appear next to each entry.
targetOfAssay: ACE2 (human, UniProt Q9BYF1 18-740)
Sequence (Q9BYF1 18-740 limits assumed): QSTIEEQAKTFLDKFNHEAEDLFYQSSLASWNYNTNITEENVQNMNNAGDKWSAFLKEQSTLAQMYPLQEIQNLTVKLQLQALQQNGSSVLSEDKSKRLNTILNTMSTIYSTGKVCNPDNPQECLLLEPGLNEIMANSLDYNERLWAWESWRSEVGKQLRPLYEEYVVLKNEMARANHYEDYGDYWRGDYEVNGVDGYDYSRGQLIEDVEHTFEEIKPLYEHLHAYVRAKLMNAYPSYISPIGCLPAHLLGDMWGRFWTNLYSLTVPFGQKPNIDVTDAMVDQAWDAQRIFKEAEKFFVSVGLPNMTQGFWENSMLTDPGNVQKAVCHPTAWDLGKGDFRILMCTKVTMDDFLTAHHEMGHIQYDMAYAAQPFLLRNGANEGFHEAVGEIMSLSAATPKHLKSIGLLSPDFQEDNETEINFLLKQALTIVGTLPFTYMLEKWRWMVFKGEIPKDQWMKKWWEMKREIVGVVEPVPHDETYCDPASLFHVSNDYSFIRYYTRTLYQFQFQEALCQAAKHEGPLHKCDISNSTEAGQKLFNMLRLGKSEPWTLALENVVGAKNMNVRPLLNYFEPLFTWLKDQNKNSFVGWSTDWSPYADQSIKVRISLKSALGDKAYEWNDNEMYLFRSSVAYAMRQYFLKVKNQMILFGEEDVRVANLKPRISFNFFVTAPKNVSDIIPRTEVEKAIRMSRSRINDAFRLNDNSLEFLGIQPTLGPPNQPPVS

binder	kon, M⁻¹ s⁻¹
ACE2 variant antibody 4-62 (VHH) VHH: EVQLVESGGGLVQPGGSLRLSCAASGRTFSDDTMGWFRQAPGKEREFVAAINWSGGSTDYADSVKGRFTISADNSKNTAYLQMNSLKPEDTAVYYCATDPPLFWGQGTLVTVSS	245000
ACE2 variant antibody 4-74 (VHH) VHH: EVQLVESGGGLVQPGGSLRLSCAASGLTFSDDTMGWFRQAPGKEREFVAAVSWSGGNTYYADSVKGRFTISADNSKNTAYLQMNSLKPEDTAVYYCATDPPLFWGQGTLVTVSS	248000
ACE2 variant antibody 4-57 (VHH) VHH: EVQLVESGGGLVQPGGSLRLSCAASGLTFRNYAMGWFRQAPGKEREFVAAIGSGGYTDYADSVKGRFTISADNSKNTAYLQMNSLKPEDTAVYYCAVKPGWVARDPSQYNWGQGTLVTVSS	307000
ACE2 variant antibody 4-52 (VHH) VHH: EVQLVESGGGLVQPGGSLRLSCAASGRSFSNSVMGWFRQAPGKEREFVARITWNGGSTYYADSVKGRFTISADNSKNTAYLQMNSLKPEDTAVYYCATTENPNPRWGQGTLVTVSS	126000
